biological target: GFRα1-RET (Homo sapiens, UniProt P56159); assay: Elk1 reporter-gene (luciferase) assay in cells expressing GFRα1-RET; conditions: MG87 murine fibroblasts stably transfected with PathDetect Elk-1, GFRα1 and RET, 6 concentrations, agonist/activator activity
Sequence (P56159 25-429 limits assumed): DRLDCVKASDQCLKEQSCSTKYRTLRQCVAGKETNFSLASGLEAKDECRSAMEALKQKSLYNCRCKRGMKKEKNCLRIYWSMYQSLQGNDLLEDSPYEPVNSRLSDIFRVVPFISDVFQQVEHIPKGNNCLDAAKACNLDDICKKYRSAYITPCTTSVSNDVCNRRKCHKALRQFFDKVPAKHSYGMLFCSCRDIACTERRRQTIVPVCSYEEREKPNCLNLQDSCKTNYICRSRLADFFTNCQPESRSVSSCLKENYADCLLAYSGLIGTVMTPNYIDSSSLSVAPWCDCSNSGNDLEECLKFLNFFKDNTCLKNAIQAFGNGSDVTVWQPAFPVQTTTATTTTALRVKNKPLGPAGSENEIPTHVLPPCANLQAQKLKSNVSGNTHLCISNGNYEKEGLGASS
QUANTITY_KIND: EC50

// field: EC50; key: COc1ccc(S(=O)(=O)N2CCC(F)CC2)cc1N1[C@@H]2CC[C@H]1CN(C(=O)c1ccc(F)cc1Cl)C2 ; value = 1000 to 10000 nM

// field: EC50; key: Cc1ccc(S(=O)(=O)N2CCN(CCc3ccc(F)cc3)CC2)cc1N1[C@@H]2CC[C@H]1CN(C(=O)c1ccc(F)cc1Cl)C2 ; value = < 1000 nM

// field: EC50; key: CCCN(C)S(=O)(=O)c1ccc(OC)c(N2CCN(C(=O)c3ccc(F)cc3C(F)(F)F)CC2CC)c1 (racemic) ; value = 10000 to 50000 nM

// field: EC50; key: Cc1ccc(S(=O)(=O)N2CCC(c3ccccc3)CC2)cc1N1[C@@H]2CC[C@H]1CN(C(=O)c1ccc(F)cc1Cl)C2 ; value = < 1000 nM

// field: EC50; key: O=C(c1ccc(F)cc1Cl)N1C[C@H]2CC[C@@H](C1)N2c1cc(S(=O)(=O)N2CCC(F)CC2)cc(Cl)c1O ; value = < 1000 nM

// field: EC50; key: CCCN(C)S(=O)(=O)c1ccc(OC2CCC2)c(N2[C@@H]3CC[C@H]2CN(C(=O)c2ccc(F)cc2Cl)C3)c1 ; value = 1000 to 10000 nM
